Source of measurements: patent US10301280B2

Test system: BaF3-FL KIT D816V or BaF3-FL KIT V560G/D816V cell line
experimentDescription: Cell-based assays of c-Kit mutant kinase activity (cell growth, ATPlite)
conditionContext: at least one of the c-kit cell assays of Example 26
pIC50: −log10 of the molar value.
Entries and their measured pIC50 follow.

// known answers, use as guide
- molSmiles: "Cc1n[nH]c(C(=O)Nc2cnc3[nH]c(-c4ccccc4)cc3c2)c1C"
  pIC50: "> 5.00"
- molSmiles: "Cc1n[nH]c(C(=O)Nc2cnc3[nH]c(-c4ccc(CC(=O)O)cc4)cc3c2)c1C"
  pIC50: "> 5.00"
- molSmiles: "Cc1n[nH]nc1C(=O)Nc1cnc2[nH]c(-c3ccc(F)cc3)cc2c1"
  pIC50: "> 5.00"

State, in one line, measured pIC50 of CCOc1cc(-c2cc3cc(NC(=O)c4n[nH]c(C)c4C)cnc3[nH]2)ccn1 > 5.00

State, in one line, measured pIC50 of Cc1n[nH]c(C(=O)Nc2cnc3[nH]c(-c4cnc(N5CCOCC5)nc4)cc3c2)c1C > 5.00

State, in one line, measured pIC50 of CC(=O)N1CC(n2cc(-c3cc4cc(NC(=O)c5n[nH]c(C)c5C)cnc4[nH]3)c(C)n2)C1 > 5.00

State, in one line, measured pIC50 of COCCNC(=O)c1cc(-c2cc3cc(NC(=O)c4n[nH]c(C)c4C)cnc3[nH]2)ccn1 > 5.00

State, in one line, measured pIC50 of O=C(Nc1cnc2[nH]c(I)cc2c1)c1cccc2n[nH]cc12 > 5.00

State, in one line, measured pIC50 of Cc1n[nH]c(C(=O)Nc2cnc3[nH]c(-c4c(C)noc4C)cc3c2)c1C > 5.00
